Biological target: FLuc-C-HiBiT (Photinus pyralis)
Construct: firefly luciferase with C-terminal HiBiT tag, E. coli expressed
Sequence (P08659 whole entry, looked up): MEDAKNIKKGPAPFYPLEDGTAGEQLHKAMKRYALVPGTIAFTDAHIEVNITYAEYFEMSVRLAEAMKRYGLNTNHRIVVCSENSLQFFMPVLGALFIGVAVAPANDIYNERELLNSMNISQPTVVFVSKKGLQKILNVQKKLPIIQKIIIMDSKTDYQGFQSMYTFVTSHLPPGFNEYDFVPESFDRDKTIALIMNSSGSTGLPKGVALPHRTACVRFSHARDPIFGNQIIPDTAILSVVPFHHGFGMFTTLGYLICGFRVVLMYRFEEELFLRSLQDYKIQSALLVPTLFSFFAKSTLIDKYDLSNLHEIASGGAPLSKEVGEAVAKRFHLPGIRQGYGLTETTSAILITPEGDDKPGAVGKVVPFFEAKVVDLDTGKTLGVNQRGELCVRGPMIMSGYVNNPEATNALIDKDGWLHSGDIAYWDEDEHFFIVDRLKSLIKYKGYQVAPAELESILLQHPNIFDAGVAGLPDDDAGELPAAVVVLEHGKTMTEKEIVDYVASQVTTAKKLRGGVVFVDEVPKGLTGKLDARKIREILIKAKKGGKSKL
Assay: biochemical
Conditions: enzyme activity, 10 uM ATP; read-out: IC50 or SDR50 (mM) / FLuc E
Provide the reported IC50 of each item.
Give bare numbers, in µM.

Known IC50 results, listed for orientation:
Specify IC50 for `Cc1nccn1CCN(C)c1ccc(-c2nc(COc3ccccc3)no2)cn1` , system FLuc-C-HiBiT (Photinus pyralis).
9.89

Provide IC50, tested on FLuc-C-HiBiT (Photinus pyralis), for `COc1ccc(-c2nc3ccccc3s2)cc1NC(=O)c1ccccc1OC` .
11.1

Retrieve IC50 on FLuc-C-HiBiT (Photinus pyralis); query COc1ccc(-c2cc(N3CCCC(NC(=O)c4ccc5c(c4)OCO5)C3)[nH]n2)cc1 (stereo not drawn)
11.1

Give IC50 for each of the items listed below.
1. COc1ccc2c(c1)C1(CCN(C(=O)Nc3ccc4c(c3)OCCO4)C1)C(=O)N2C (stereo not drawn)
2. Cc1ccc(-c2nnc(SCc3ccccc3)o2)cc1
3. C[S+](=O)([O-])CCn1ncc2cc(OCc3cccc(-c4cccc(O)c4)c3)ccc21
4. Cc1ccc(NC(=O)N2CCc3c(C(=O)NCc4ccco4)cccc32)cc1

1. 11.1
2. 11.1
3. 16.1
4. 0.0495

Hi! Can you tell me IC50 for each of these compounds?
1. CNC(=O)c1cccc(-c2cnc(NC(=O)c3ccncc3)c3c2CCO3)c1
2. OCc1cccc(-c2cc3c(cn2)CN(Cc2ccccc2)CCN3)c1
3. CCN1CCN(CCNC(=O)c2cccc3c2CCN3C(=O)Nc2ccc(C)cc2)CC1
4. CN1c2cc(C(=O)Nc3ccccc3)ccc2C(=O)N2CCCCC21 (stereo not drawn)
5. COc1ccccc1NC(=O)Nc1cccc(-c2ccc(N3CCOCC3)nn2)c1
6. CN(C)c1cccc(C(=O)NC2CCN(c3cc(-c4ccccc4)n[nH]3)C2)c1 (stereo not drawn)

20.2
18
1.11
12.4
3.13
7
